Hey, just so you know, these numbers are from patent US20210246166A1.

human MASP1 IC50 for assorted binders
Measured Target: T1, Recombinant human MASP1 enzyme (fragment corresponding to amino acids 297-699, C-terminal His Tag) (human, UniProt P48740 297-699)
T1 sequence: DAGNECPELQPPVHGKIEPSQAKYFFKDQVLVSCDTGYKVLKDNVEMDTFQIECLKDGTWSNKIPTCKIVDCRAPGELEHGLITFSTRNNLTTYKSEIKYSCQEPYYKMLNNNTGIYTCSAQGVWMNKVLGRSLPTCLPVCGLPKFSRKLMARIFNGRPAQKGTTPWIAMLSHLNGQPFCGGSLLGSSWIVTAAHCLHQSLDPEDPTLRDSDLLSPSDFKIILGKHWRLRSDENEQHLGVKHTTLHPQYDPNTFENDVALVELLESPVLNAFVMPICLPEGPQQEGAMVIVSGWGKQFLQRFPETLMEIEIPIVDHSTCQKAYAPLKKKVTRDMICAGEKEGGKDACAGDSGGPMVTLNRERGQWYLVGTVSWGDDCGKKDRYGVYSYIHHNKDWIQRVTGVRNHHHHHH
Test Protocol: cell-based or functional assay
Numbered stars: 1 amine (or outer) side, 2 acyl side, 3 side chain; on linkers, the order of the positions; unused ones are H or OH. Bridge positions count the residues as written; N and C are the ends. Square brackets hold non-standard residues; d marks the D form. Ends that are not written are not given here. (N-Benzyl)D = (2S)-2-Amino-4-(benzylamino)-4-oxobutanecarboxylic acid, O=C(C[C@H](N[*:1])C(=O)[*:2])NCc1ccccc1; X10 = (2R)‑2‑amino‑3‑(trifluoromethylsulfanyl)propanoic acid, O=C([C@H](CSC(F)(F)F)N[*:1])[*:2]; X11 = (S)‑Piperidine‑3‑carboxylic acid, O=C([C@H]1CCCN([*:1])C1)[*:2]; Pro(cis-4-CF3) = O=C(O)[C@@H]1C[C@H](C(F)(F)F)CN1; Oic = O=C(O)[C@@H]1C[C@@H]2CCCC[C@@H]2N1; βPro(3R) = O=C([C@@H]1CCN([*:1])C1)[*:2]; Pen = CC(C)(S)[C@H](N)C(=O)O; NMeA = CN[C@@H](C)C(=O)O; Orn = NCCC[C@H](N)C(=O)O; Sar = CNCC(=O)O

Worked examples, 5 binders total:
Req: Reported human MASP1 IC50, binder [X11]ICSRSLP[Oic]I[Pen]IPD-OH (disulfide 3-11; N-terminus assumed; SMILES CC[C@H](C)[C@H](NC(=O)[C@H]1CCCNC1)C(=O)N[C@H]1CSSC(C)(C)[C@@H](C(=O)N[C@H](C(=O)N2CCC[C@H]2C(=O)N[C@@H](CC(=O)O)C(=O)O)[C@@H](C)CC)NC(=O)[C@H]([C@@H](C)CC)NC(=O)[C@@H]2C[C@@H]3CCCC[C@@H]3N2C(=O)[C@@H]2CCCN2C(=O)[C@H](CC(C)C)NC(=O)[C@H](CO)NC(=O)[C@H](CCCNC(=N)N)NC(=O)[C@H](CO)NC1=O) [((S)-Piperidine-3-Carboxylic Acid)-IC+SRSLP-(Oic)-I-(Pen)+IPD-OH] : ____
Resp: 2.4 nM

Req: Reported human MASP1 IC50, binder [Orn]ICSRS[X10]PPI[Pen]IPD-OH (disulfide 3-11; N-terminus assumed; SMILES CC[C@H](C)[C@H](NC(=O)[C@@H](N)CCCN)C(=O)N[C@H]1CSSC(C)(C)[C@@H](C(=O)N[C@H](C(=O)N2CCC[C@H]2C(=O)N[C@@H](CC(=O)O)C(=O)O)[C@@H](C)CC)NC(=O)[C@H]([C@@H](C)CC)NC(=O)[C@@H]2CCCN2C(=O)[C@@H]2CCCN2C(=O)[C@H](CSC(F)(F)F)NC(=O)[C@H](CO)NC(=O)[C@H](CCCNC(=N)N)NC(=O)[C@H](CO)NC1=O) [(Orn)-IC+SRS-((2R)-2-amino-3-(trifluoromethylsulfanyl)propanoic acid)-PPI-(Pen)+IPD-OH] : ____
Resp: 3.1 nM

Req: Reported human MASP1 IC50, binder [Sar]ICSRSLP[Oic]I[Pen]IP[βPro(3R)]-OH (disulfide 3-11; N-terminus assumed; SMILES CC[C@H](C)[C@H](NC(=O)CNC)C(=O)N[C@H]1CSSC(C)(C)[C@@H](C(=O)N[C@H](C(=O)N2CCC[C@H]2C(=O)N2CC[C@@H](C(=O)O)C2)[C@@H](C)CC)NC(=O)[C@H]([C@@H](C)CC)NC(=O)[C@@H]2C[C@@H]3CCCC[C@@H]3N2C(=O)[C@@H]2CCCN2C(=O)[C@H](CC(C)C)NC(=O)[C@H](CO)NC(=O)[C@H](CCCNC(=N)N)NC(=O)[C@H](CO)NC1=O) [((N-Me)G)-IC+SRSLP-(Oic)-I-(Pen)+IP-((R)-Pyrrolidine-3-carboxylic acid)-OH] : ____
Resp: 28 nM

Req: Reported human MASP1 IC50, binder AICSRSLP[Pro(cis-4-CF3)]ICIPD-OH (disulfide 3-11; N-terminus assumed; SMILES CC[C@H](C)[C@H](NC(=O)[C@H](C)N)C(=O)N[C@H]1CSSC[C@@H](C(=O)N[C@H](C(=O)N2CCC[C@H]2C(=O)N[C@@H](CC(=O)O)C(=O)O)[C@@H](C)CC)NC(=O)[C@H]([C@@H](C)CC)NC(=O)[C@@H]2C[C@H](C(F)(F)F)CN2C(=O)[C@@H]2CCCN2C(=O)[C@H](CC(C)C)NC(=O)[C@H](CO)NC(=O)[C@H](CCCNC(=N)N)NC(=O)[C@H](CO)NC1=O) [AIC+SRSLP-((4-CF3)P)-IC+IPD-OH] : ____
Resp: 7.5 nM

Req: Reported human MASP1 IC50, binder [NMeA]ICSRSLP[Oic]I[Pen]IP[(N-Benzyl)D]-NH2 (disulfide 3-11) [((N-Me)A)-IC+SRSLP-(Oic)-I-(Pen)+IP-((N-Benzyl)D)-NH2] : ____
Resp: 12 nM

New cases:
Req: Reported human MASP1 IC50, binder [Sar]ICSRSLP[Oic]I[Pen]IPG[dD]-OH (disulfide 3-11; N-terminus assumed; SMILES CC[C@H](C)[C@H](NC(=O)CNC)C(=O)N[C@H]1CSSC(C)(C)[C@@H](C(=O)N[C@H](C(=O)N2CCC[C@H]2C(=O)NCC(=O)N[C@H](CC(=O)O)C(=O)O)[C@@H](C)CC)NC(=O)[C@H]([C@@H](C)CC)NC(=O)[C@@H]2C[C@@H]3CCCC[C@@H]3N2C(=O)[C@@H]2CCCN2C(=O)[C@H](CC(C)C)NC(=O)[C@H](CO)NC(=O)[C@H](CCCNC(=N)N)NC(=O)[C@H](CO)NC1=O) [((N-Me)G)-IC+SRSLP-(Oic)-I-(Pen)+IPGd-OH] : ____
Resp: 3.4 nM
